Where these numbers come from: ChEMBL document CHEMBL4118122

Overview of recorded log10 of Vd for various molecules
Experiment: Volume of distribution at steady state in Sprague-Dawley rat at 1 mg/kg, iv
Assay type: ADME, organism-based
Details: in vivo, read-out: Vdss
# log10 transformed; quantity=Vd; unit=L/kg

Below, each entry is followed by its recorded log10 of Vd result.
>  <structureAsSmiles>
CC(C)(C)NS(=O)(=O)c1ccc(-c2sc(C(=O)N[C@H]3C[C@H](C(=O)O)C3)nc2CC2CCCCC2)c2ccccc12

>  <val>
0.04

$$$$
>  <structureAsSmiles>
C[C@H](NS(=O)(=O)c1ccc(-c2sc(C(=O)NCC(C)(C)O)nc2CC2CC2)c2ccccc12)C(F)(F)F

>  <val>
1.47

$$$$
>  <structureAsSmiles>
CC(C)(C)NS(=O)(=O)c1ccc(-c2sc(C(=O)N[C@H]3C[C@H](C(=O)O)C3)nc2CC2CCCCC2)c(Cl)c1

>  <val>
0.36

$$$$
>  <structureAsSmiles>
C[C@H](NS(=O)(=O)c1ccc(-c2sc(C(=O)NC3CCS(=O)(=O)CC3)nc2CC2CC2)c2ccccc12)C(F)(F)F

>  <val>
0.53

$$$$

Query string: # input molecule: C[C@H](NS(=O)(=O)c1ccc(-c2sc(C(=O)NCC(C)(C)O)nc2CC2CCC2)c(C(F)F)c1)C(F)(F)F ; wanted: its log10 of Vd
Result string: 0.73
